Values were extracted from patent US9434701B2.

Test system: fetal dopaminergic neurons (TH+) in culture
assay: dopaminergic neuron spontaneous degeneration model, second protocol (Mourlevat et al.), TH+ neuron count after 10 days
Format: cell-based
experimental.setup: Rattus norvegicus, 240 h, compound at 50 μM, 10 days of culture, one experiment in triplicate, read-out: TH+ neurons in % of control ± Std. Err.
Collected activity at 50 µM values appear next to each entry.
reported.property: activity at 50 µM

INSERT INTO measurements (smiles_string, observed_measurement) VALUES
  ('Cc1nc2ccc(N)c(Br)c2nc1-c1ccccc1', '153%'),
  ('Cc1nc2ccc(N)c(Cl)c2nc1-c1ccccc1', '129%'),
  ('COc1ccc(-c2nc3cc(N)ccc3nc2-c2ccccc2)cc1', '130%'),
  ('C#CCNc1ccc2nc(C)c(-c3ccc(F)cc3)nc2c1', '166%'),
  ('C#CCNc1ccc2nc(C)c(-c3ccccc3)nc2c1', '174%');

###

System: dopaminergic neurons (TH+) of rat embryo ventral midbrain culture
assay: neuritogenic activity: neurite outgrowth per cell / differentiation of TH+ neurons
Type: cell-based
experimental.setup: Rattus norvegicus, Neuron; compound at 100 nM; read-out: Diff in % of control ± SEM
Description: Quinoxaline derivatives were tested on a dopaminergic neuron spontaneous degeneration model in culture according to the protocol described in the article by F. Schmidt et al. […] This model consists of culturing rat embryo ventral midbrain. […] To assess the neuritogenic activity of compounds according to the invention, neurite outgrowth per cell was quantified using the Neurite Outgrowth software developed by Xplora Nova. […]
reported.property: activity at 0.1 µM

INSERT INTO assay_data (smiles_string, observed_measurement) VALUES
  ('CCCCc1cnc2ccc(N)cc2n1', '118%'),
  ('CCCCc1nc2cc(N)ccc2nc1C', '102%'),
  ('CCCCCCc1nc2ccc(N)cc2nc1CCCC', '104%'),
  ('Cc1nc2ccc(N)cc2nc1-c1ccccc1', '142%');

###

assay: passage of the blood-brain barrier, IP study: brain extract concentration by HPLC-MS/MS
Type: in vivo, Rj Orl: SWISS mice
experimental.setup: male, Rj Orl: SWISS, mouse, brain extract, ip, 70 mg/kg, IP 70 mg/kg; euthanized 2 h after last treatment; extracts stored 40 days at 4° C.; ± SEM, n=4; read-out: mean concentration in old brain extracts
reported.property: concentration at 2 h (ng/mL)

INSERT INTO assay_data (smiles_string, unit_string, observed_measurement) VALUES
  ('Cc1nc2ccc(N)cc2nc1-c1ccccc1', 'ng/mL', 1390);

###

assay: passage of the blood-brain barrier, IP study: brain extract concentration by HPLC-MS/MS
Type: in vivo, Rj Orl: SWISS mice
experimental.setup: male, Rj Orl: SWISS, mouse, brain extract, ip, 70 mg/kg, IP 70 mg/kg; euthanized 2 h after the last treatment; ± SEM, n=3; read-out: mean concentration in brain extract
reported.property: concentration at 2 h (ng/mL)

INSERT INTO measurements (molecule, reported_property, unit_string, observed_measurement) VALUES
  ('Cc1nc2ccc(N)cc2nc1-c1ccccc1 [Compound 4bc]', 'concentration at 2 h', 'ng/mL', 8830);
